- System: MDA-MB-435
- Protocol Summary: NCI tumour cell line growth inhibition, 48 h
Calls of active or inactive are those of the source. Cut-off read from the data, not from the text of the source: active = GI50 up to about 1.1 µM and inactive = higher.
Result category, one only: active, inactive

Molecule	Experimental System	Cat
COc1cc2c[n+]3c4c(c2c(OC)c1OC)CCCC4CC3 (centres undefined)	MDA-MB-435	inactive
CC1(C)OCC([C@H]2O[C@@H](CC(=S)NCCCCCCCCCCCCNC(=S)C[C@H]3O[C@@H](C4COC(C)(C)O4)[C@H]4OC(C)(C)O[C@H]43)[C@H]3OC(C)(C)O[C@H]32)O1 (some centres undefined)	MDA-MB-435	inactive
OC1OC(c2ccco2)C(F)(F)C(F)(F)C1(F)F (centres undefined)	MDA-MB-435	inactive
COc1cc(C2C3=C(COC3=O)OC(C)(C)Oc3cc4c(cc32)OCO4)cc(OC)c1O (centres undefined)	MDA-MB-435	active
COc1ccc(/C=N/c2nc3cc4sc(/N=C/c5ccc(OC)cc5)nc4cc3s2)cc1	MDA-MB-435	inactive

Kindly provide the recorded test outcome for the following molecule: "CC(C)=CCC[C@@H](C)C1=C(Nc2ccccc2Cl)C(=O)C(C)=C(O)C1=O"
inactive

What classification did "CCCCNC(=S)N/C=C1\C(=O)Oc2ccccc2C1=O" end up with in this test?
inactive

Per the assay record, what outcome was assigned to "NC(=O)Nc1ccc(C(=O)NCCCNC(=O)c2ccc(NC(N)=O)cc2)cc1" ?
inactive

For "COC(=O)C1=NN2c3ccccc3CN([C@@H](C)c3ccccc3)C(=O)[C@@H]2C1" , which call appears in the assay record?
inactive
